Below, each of the compounds is paired with its reported ΔTm value.
molecular target: Fibroblast growth factor receptor 2 (Homo sapiens) (UniProt P21802); settings: Compound concentration 20.0 uM
Sequence (P21802 22-821 limits assumed): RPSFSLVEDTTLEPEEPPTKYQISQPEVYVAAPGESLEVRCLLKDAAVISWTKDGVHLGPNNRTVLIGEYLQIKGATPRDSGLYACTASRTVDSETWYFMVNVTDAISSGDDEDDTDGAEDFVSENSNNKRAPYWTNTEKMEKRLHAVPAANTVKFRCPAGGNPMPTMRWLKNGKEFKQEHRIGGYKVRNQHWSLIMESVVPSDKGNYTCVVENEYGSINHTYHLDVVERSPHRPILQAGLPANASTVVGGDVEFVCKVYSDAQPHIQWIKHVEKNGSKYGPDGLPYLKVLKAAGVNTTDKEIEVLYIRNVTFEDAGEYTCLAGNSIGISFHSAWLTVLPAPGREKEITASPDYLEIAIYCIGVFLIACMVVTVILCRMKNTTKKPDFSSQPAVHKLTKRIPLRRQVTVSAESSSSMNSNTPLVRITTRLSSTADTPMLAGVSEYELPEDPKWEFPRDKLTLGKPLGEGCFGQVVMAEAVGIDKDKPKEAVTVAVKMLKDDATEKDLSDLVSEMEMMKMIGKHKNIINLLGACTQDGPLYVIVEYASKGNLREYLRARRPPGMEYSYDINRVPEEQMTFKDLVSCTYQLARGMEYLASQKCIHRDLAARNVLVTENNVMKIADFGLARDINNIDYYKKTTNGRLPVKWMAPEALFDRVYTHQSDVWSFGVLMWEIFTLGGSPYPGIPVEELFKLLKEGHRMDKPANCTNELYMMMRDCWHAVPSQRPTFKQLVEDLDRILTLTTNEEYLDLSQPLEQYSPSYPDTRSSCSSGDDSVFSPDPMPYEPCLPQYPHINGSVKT
Description: Thermal Shift Assay. Domain: start/stop: T457-E768
Just the number in °C, nothing appended.

Past entries and their recorded results:
COMPOUND | TARGET OR TEST SYSTEM | ΔTm, °C
Nc1ncnc2c1ncn2[C@@H]1O[C@H](C[C@@H](N)CC[C@H](N)C(=O)O)[C@@H](O)[C@H]1O | Fibroblast growth factor receptor 2 (Homo sapiens) (UniProt P21802) | -1.33
CCOc1ccc2nc(-c3cccc(OCC(=O)NC(C)C)c3)nc(Nc3ccc(-c4cn[nH]c4)cc3)c2c1 | Fibroblast growth factor receptor 2 (Homo sapiens) (UniProt P21802) | -0.59
O=C(Oc1cccc(F)c1OC(=O)c1cccc(O)c1)c1cccc(O)c1 | Fibroblast growth factor receptor 2 (Homo sapiens) (UniProt P21802) | 0.56
COc1nc(Nc2cc(S(C)(=O)=O)ccc2N[C@@H](c2cccc3c2OC(F)(F)O3)c2ncccc2Cl)nc(N2CCNCC2)n1 | Fibroblast growth factor receptor 2 (Homo sapiens) (UniProt P21802) | -8.88
O=C(CCl)Nc1ccc(S(=O)(=O)c2ccc(NC(=O)CCl)cc2)cc1 | Fibroblast growth factor receptor 2 (Homo sapiens) (UniProt P21802) | 0.88
Nc1nc2cc(CC[C@H]3C[C@@H](n4ccc5c(N)ncnc54)[C@H](O)[C@@H]3O)ccc2cc1Br | Fibroblast growth factor receptor 2 (Homo sapiens) (UniProt P21802) | -5.18

State measured ΔTm of the compound O=C(c1ccc2c(ccn2-c2ccc(F)cc2)c1)N1CC(N2CCN(C(=O)c3nccs3)CC2)C1 with Fibroblast growth factor receptor 2 (Homo sapiens) (UniProt P21802).
-0.43

Give the observed ΔTm of COc1ccccc1C(=O)Nc1cc2c(cc1N1CCCCC1)n(C)c(=O)n2C for Fibroblast growth factor receptor 2 (Homo sapiens) (UniProt P21802).
0.52

Give measured ΔTm for O=c1[nH][nH]c(=O)c2cc(OCc3ccsc3)ccc12 (Fibroblast growth factor receptor 2 (Homo sapiens) (UniProt P21802)).
0.19

----------
biological target: Fibroblast growth factor receptor 2 (Homo sapiens) (UniProt P21802); conditions: Compound concentration 20.0 uM
Flag rule - ΔTm less than 0.3 °C flags label 1; the remaining entries get label 0.

Look over these answered cases.
CHEMICAL STRING | GROUP
COc1cc2c(cc1OC)[C@H]1C[C@@H](OC(=O)[C@@H](N)C(C)C)[C@H](CC(C)C)CN1CC2 | label 0
O=C(NO)c1cnc(NC2(c3ccccc3)CC2)nc1 | label 0
CCn1nc(C2CC2)cc1Nc1nc(C(=O)NC)nc2[nH]c3cc(-c4c(C)noc4C)c(OC)cc3c12 | label 1

Below: the item to evaluate.
Quick check: ΔTm of Cc1ncsc1-c1ccc(CNC(=O)[C@@H]2C[C@@H](O)CN2C(=O)[C@@H](NC(=O)COCCOCCOCCNC(=O)C[C@@H]2N=C(c3ccc(Cl)cc3)c3c(sc(C)c3C)-n3c(C)nnc32)C(C)(C)C)cc1 under 0.3 °C?
label 0

----------
target: Fibroblast growth factor receptor 2 (Homo sapiens) (UniProt P21802); conditions: Compound concentration 20.0 uM
Residues, ends and D or L forms follow the SMILES beside them. *: point of attachment. Cbz = O=C(OCc1ccccc1)*; CH2F = FC*
ΔTm: recorded values
Value and unit, in that order.

Take a look at these entries with their results.
MOLECULE | ΔTm
C[C@@H]1O[C@@H](CC(=O)O)CC2=C1C(=O)c1c(O)cccc1C2=O | -0.89 °C
O=C(O)Cn1nnc(-c2ccc(CN(CCCCOc3ccc(CN4CCCC4)cc3)CCc3ccccc3)cc2)n1 | -2.96 °C
O=C1c2ccccc2C(=O)c2oc(-c3ccc(F)cc3)nc21 | 0.19 °C
COc1cccc(Nc2c(C(N)=O)cnc3c(C)cc(S(=O)(=O)c4cccc(C(=O)N(C)C)c4)cc23)c1 | -0.11 °C
O=C(NC(Cc1ccccc1)C(=O)NC(Cc1ccccc1)C(=O)CF)OCc1ccccc1 (stereo not drawn) (Cbz-Phe-Phe-CH2F; configuration not given here) | 0.39 °C
C[C@H](NC(=O)c1cn(C2(C#N)CC2)cn1)C(=O)Nc1nc(-c2cccc(-c3ccn(C)n3)c2)cs1 | 0.8 °C
COc1ncc(C)cc1CC[C@@](O)(CC(=O)O)C(=O)O | 0.32 °C
CC(C)=C[C@H]1C[C@H](C)[C@]2(CC[C@]3(C)C[C@H]4[C@H](C(=O)C[C@@]4(C)O)/C(C=O)=C\C[C@H]32)O1 | 0.16 °C

Return ΔTm (reported value) for this molecule: c1ccc(Cn2c(-c3ccc(OC[C@H](C4CCNCC4)n4c(-c5ccccc5)nc5ccccc54)cc3)nc3ccccc32)cc1
-8.18 °C

----------
Reported ΔTm values follow for various molecules
biological target: Peregrin (Homo sapiens) (UniProt P55201); settings: Compound concentration 20.0 uM
Sequence (P55201 whole entry): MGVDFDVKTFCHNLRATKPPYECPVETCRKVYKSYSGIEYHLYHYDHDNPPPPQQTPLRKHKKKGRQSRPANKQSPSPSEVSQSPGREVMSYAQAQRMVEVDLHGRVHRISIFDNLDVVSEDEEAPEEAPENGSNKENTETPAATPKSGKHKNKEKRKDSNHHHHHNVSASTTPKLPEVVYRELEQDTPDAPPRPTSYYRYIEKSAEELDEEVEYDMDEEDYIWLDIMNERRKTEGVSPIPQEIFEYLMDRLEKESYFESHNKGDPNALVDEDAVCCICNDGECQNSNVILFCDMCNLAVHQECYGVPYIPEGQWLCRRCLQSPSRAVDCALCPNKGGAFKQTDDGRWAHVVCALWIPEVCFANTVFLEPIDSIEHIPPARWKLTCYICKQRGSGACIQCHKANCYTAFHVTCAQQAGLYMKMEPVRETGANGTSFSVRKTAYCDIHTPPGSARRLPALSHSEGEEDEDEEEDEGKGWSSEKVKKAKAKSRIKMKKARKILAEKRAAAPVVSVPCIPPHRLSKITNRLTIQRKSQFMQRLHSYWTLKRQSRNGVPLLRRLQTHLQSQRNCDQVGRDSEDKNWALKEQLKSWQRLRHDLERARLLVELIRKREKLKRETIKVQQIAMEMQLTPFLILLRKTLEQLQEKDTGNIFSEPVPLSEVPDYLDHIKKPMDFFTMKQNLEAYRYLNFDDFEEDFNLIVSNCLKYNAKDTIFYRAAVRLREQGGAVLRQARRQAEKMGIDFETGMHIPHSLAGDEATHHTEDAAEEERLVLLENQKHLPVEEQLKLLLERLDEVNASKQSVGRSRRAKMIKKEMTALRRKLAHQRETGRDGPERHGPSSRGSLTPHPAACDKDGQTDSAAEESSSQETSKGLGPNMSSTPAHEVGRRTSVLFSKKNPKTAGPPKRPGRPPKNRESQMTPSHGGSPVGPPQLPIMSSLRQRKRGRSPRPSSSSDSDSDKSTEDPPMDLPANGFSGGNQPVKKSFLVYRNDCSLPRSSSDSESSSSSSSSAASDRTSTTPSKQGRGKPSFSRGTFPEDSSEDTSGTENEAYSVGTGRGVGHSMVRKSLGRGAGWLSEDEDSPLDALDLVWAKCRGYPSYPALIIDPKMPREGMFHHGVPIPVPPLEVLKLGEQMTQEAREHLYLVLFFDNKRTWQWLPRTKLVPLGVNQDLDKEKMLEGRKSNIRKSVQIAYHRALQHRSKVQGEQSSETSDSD
Numbers only here, please. The scale is °C.

Consider the worked cases shown below.
MOLECULE | VALUE
CN(CCC(Oc1ccc(-c2ccccc2)cc1)c1ccc(F)cc1)CC(=O)O (stereo not given) | 1.93
COc1cc(C)[nH]c(=O)c1CNC(=O)c1c(C)n([C@H](C)C2CCOCC2)c2ccccc12 | -1.84
COc1cc(Cl)ccc1C1=CN(c2ccc(-c3ccccc3OC)cc2)C2=NCCCN12 | -0.95
C[C@H](NC(=O)[C@H](Cc1ccccc1)NC(=O)OCc1ccccc1)C(=O)CF | -1.31
CCN(c1cc(C#CCN2CCOCC2)cc(C(=O)NCc2c(C)cc(C)[nH]c2=O)c1C)[C@H]1CC[C@H](N(C)CCOC)CC1 | -1.63
N#Cc1ccc([C@H]2CCCC[C@H]2O)cc1C(F)(F)F | -0.66
Nc1ccccc1NC(=O)c1ccc(CNC(=O)OCc2cccnc2)cc1 | -0.57
N#Cc1ccc(Nc2cnccc2SCc2ccccc2C(=O)O)c2ccccc12 | 1.8
O=C1C(=O)N(Cc2ccccc2)c2ccc(S(=O)(=O)N3CCC[C@H]3COc3ccc(C(F)(F)F)cc3)cc21 | -2.14

Here is another molecule to look at.
Entry Fc1ccc(C(OCCN2CCN(CCCc3ccccc3)CC2)c2ccc(F)cc2)cc1 needs its ΔTm filled in; supply it.
0.78

----------
target: Fibroblast growth factor receptor 2 (Homo sapiens); conditions: Compound concentration 20.0 uM
The compounds listed here are annotated with their ΔTm.
Form entry: enter the amount, then its unit.

Provide only the value of recorded ΔTm for CCCSc1nc2c(c(=O)n1-c1ccccc1)SCC2
0.36 °C

----------
target: Fibroblast growth factor receptor 2 (Homo sapiens) (UniProt P21802); details: Compound concentration 20.0 uM
Hi! Could you tag entries with ΔTm below -0.3 °C as satisfied, and those at or above as not satisfied? Much appreciated.

MOLECULE | GROUP
NS(=O)(=O)c1cc(-c2nnn[nH]2)c(NCc2cccs2)cc1Cl | not satisfied
O=C(NCc1ccc(Cl)cc1)C1CCN(S(=O)(=O)c2cc(Cl)cc(Cl)c2)CC1 | satisfied
COC(=O)[C@@H]1CC2=CC(=O)CC[C@]2(C)[C@@]23O[C@@H]2C[C@@]2(C)[C@@H](CC[C@@]24CCC(=O)O4)[C@H]13 | not satisfied
C[C@]1(c2nc3c(C(N)=O)cccc3[nH]2)CCCN1 | satisfied

Now look at this one.
ΔTm strictly < -0.3 °C for this molecule? O=C(N1CCCCC1c1ccccc1)n1cc(-c2ccc(-c3cccc(CO)c3)cc2)nn1 (stereo not given)
satisfied

----------
Parameter: ΔTm. Scope: all listed entries.
molecular target: Fibroblast growth factor receptor 2 (Homo sapiens) (UniProt P21802); details: Compound concentration 20.0 uM
Residues, ends and D or L forms follow the SMILES beside them.
Write the numeric value and follow it with the unit.

MOLECULE | ΔTm
O=C(C1CC1)N1CCN(Cn2sc3ccccc3c2=O)CC1 | 0.46 °C

Provide the reported ΔTm (system: Fibroblast growth factor receptor 2 (Homo sapiens) (UniProt P21802)) for CC(=O)N[C@@H](CC(C)C)C(=O)N[C@@H](CCC(=O)O)C(=O)N[C@H](C(=O)N[C@H](C=O)CC(=O)O)C(C)C (Ac-LEVD-aldehyde)
0.88 °C

With Fibroblast growth factor receptor 2 (Homo sapiens) (UniProt P21802) as the test system, provide measured ΔTm for this molecule: COC1CCN(C(=O)c2cc(Cc3n[nH]c(=O)c4ccccc34)ccc2F)CC1
-0.21 °C

Give Fibroblast growth factor receptor 2 (Homo sapiens) (UniProt P21802) ΔTm for the following molecule: COc1ccccc1C(=O)Nc1cc2c(cc1N1CCNC[C@H]1C)n(C)c(=O)n2C
0.68 °C

Would you please give the reported ΔTm of CC(C)[C@@H]1NC(=O)[C@H](Cc2ccc(O)cc2)NC(=O)[C@@H](CC(=O)O)NC(=O)S[C@@H](C(=O)O)NC(=O)[C@H]([C@H](C)O)NC(=O)[C@H](Cc2ccc(O)cc2)NC(=O)[C@H](Cc2c[nH]c3ccccc23)NC(=O)[C@H](CCCNC(=N)N)NC(=O)[C@H](Cc2c[nH]c3ccccc23)NC(=O)[C@H](C)NC(=O)[C@H](CO)NC(=O)[C@H](CCCNC(=N)N)NC(=O)[C@H]([C@H](C)O)NC(=O)[C@H](CC(N)=O)NC(=O)[C@H](Cc2ccc(O)cc2)NC1=O with Fibroblast growth factor receptor 2 (Homo sapiens) (UniProt P21802)?
0.32 °C

Report value only: ΔTm, Fibroblast growth factor receptor 2 (Homo sapiens) (UniProt P21802), O=C(NCCCCCCCCNC(=O)C(Cl)Cl)C(Cl)Cl
-0.34 °C

Supply ΔTm measured with Fibroblast growth factor receptor 2 (Homo sapiens) (UniProt P21802) for CC(C)c1cc(C(=O)N2CC[C@@H](NC(=O)C3CC3)C2)[nH]n1 .
-0.51 °C

Look up Fibroblast growth factor receptor 2 (Homo sapiens) (UniProt P21802) data: ΔTm of CC(C)NC(=O)c1ccc(OC(F)F)c(OCC2CC2)c1 , then report it.
0.29 °C

Send back Fibroblast growth factor receptor 2 (Homo sapiens) (UniProt P21802) ΔTm of NC(=O)c1cnc(N[C@@H]2CCCC[C@@H]2N)nc1Nc1cccc(-n2nccn2)c1 only.
0.98 °C

State recorded ΔTm with Fibroblast growth factor receptor 2 (Homo sapiens) (UniProt P21802), entry O=C(O)/C(S)=C/c1ccc(I)cc1 , no comment.
-1 °C

Lab note: record ΔTm of N[C@@H](CCCCNC(=O)OCc1ccc([N+](=O)[O-])cc1)C(=O)N1CCCC1 tested on Fibroblast growth factor receptor 2 (Homo sapiens) (UniProt P21802).
-0.09 °C

Provide the reported ΔTm (system: Fibroblast growth factor receptor 2 (Homo sapiens) (UniProt P21802)) for C[C@H](Nc1nc2c(cnn2C2CCCC2)c(=O)[nH]1)c1ccc(Cl)cc1
0.2 °C

Write down the reported ΔTm (system: Fibroblast growth factor receptor 2 (Homo sapiens) (UniProt P21802)) of O=C(O)CCNc1cc(N2CCc3ccccc3CC2)nc(-c2ccccn2)n1
0.4 °C

Provide the reported ΔTm (system: Fibroblast growth factor receptor 2 (Homo sapiens) (UniProt P21802)) for CC(=O)N1CCc2c(c(N3CCCc4cc(-c5cnn(C)c5)c(C(F)F)cc43)nn2C2CCOCC2)C1
0.45 °C

Report the value of ΔTm obtained on Fibroblast growth factor receptor 2 (Homo sapiens) (UniProt P21802) for C[C@]12CC[C@@H]3c4ccc(O)cc4C[C@@H](CCCCCCCCC[S+]([O-])CCCC(F)(F)C(F)(F)F)[C@H]3[C@@H]1CC[C@@H]2O (stereo partly specified) .
-3.24 °C

Given CS(=O)(=O)c1ccc(Oc2cc(F)cc(C#N)c2)c2c1[C@H](O)[C@H](F)[C@@H]2F , report its ΔTm on Fibroblast growth factor receptor 2 (Homo sapiens) (UniProt P21802).
0.61 °C

Source listed as ChEMBL document CHEMBL5724796.
